Target: mouse VISTA (mVISTA) (Mus musculus, UniProt Q9D659)
Construct: expressed in transfected cells; host or cells: Human embryonic kidney 293T cells
Sequence (Q9D659 33-308): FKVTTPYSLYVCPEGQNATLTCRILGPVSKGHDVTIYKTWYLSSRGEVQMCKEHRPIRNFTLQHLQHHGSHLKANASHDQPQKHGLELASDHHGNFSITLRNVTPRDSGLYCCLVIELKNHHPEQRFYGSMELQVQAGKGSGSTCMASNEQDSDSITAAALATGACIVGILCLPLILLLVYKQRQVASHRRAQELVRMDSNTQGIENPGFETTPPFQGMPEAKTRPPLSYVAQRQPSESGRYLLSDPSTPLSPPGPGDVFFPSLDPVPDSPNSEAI
Experiment: Cell-Based Binding High-Content Assay For mVISTA (HC CBA mVISTA)
Settings: the 20th table, scaffold drawing 23; read-out: HC CBA mVISTA IC50
Positions of bridges follow the written chain, without caps; N, C: chain ends. Non-standard residues stand in square brackets, D forms with d. Residues, ends and D or L forms follow the SMILES beside them. *: point of attachment. Phe(4-CF3) = N[C@@H](Cc1ccc(C(F)(F)F)cc1)C(=O)O; Phe(4-NH2) = Nc1ccc(C[C@H](N)C(=O)O)cc1; Ahp(2) = CCCCC[C@H](N)C(=O)O; NHexGly = CCCCCCNCC(=O)O; Nle = CCCC[C@H](N)C(=O)O; Allyl = C=CC*
Quick list: pIC50 per entry.
For clarity, pIC50 is expressed as the negative log10 of concentration in mol/L.

Example cases with answers are listed next.
• CCCCCCN1CC(=O)N[C@@H](Cc2ccc(O)cc2)C(=O)N[C@@H](C(C)C)C(=O)NCC(=O)N[C@@H](CCCNC(=N)N)C(=O)N[C@@H](CC(C)C)C(=O)N[C@@H](CCCCC)C(=O)N2CCC[C@H]2C(=O)N[C@@H](C(C)C)C(=O)N[C@@H](CC(=O)O)C(=O)N[C@H](C(=O)NCC(N)=O)CSCC(=O)N[C@@H](Cc2ccc(OC)cc2)C(=O)N[C@@H](Cc2ccc(O)cc2)C(=O)N[C@@H](CC(=O)O)C1=O [compound 1477] ({CH2CO}-Y(Me)YD[NHexGly]YVGRL[Ahp(2)]PVDCG-NH2; thioether N-14) = 7.31
• CCCCCCN1CC(=O)N[C@@H](Cc2ccc(O)cc2)C(=O)N[C@@H](CCCC)C(=O)NCC(=O)N[C@@H](CCCNC(=N)N)C(=O)N[C@@H](CC(C)C)C(=O)N[C@@H](CCCCC)C(=O)N2CCC[C@H]2C(=O)N[C@@H](C(C)C)C(=O)N[C@@H](CC(=O)O)C(=O)N[C@H](C(=O)NCC(=O)O)CSCC(=O)N[C@@H](Cc2ccc(N)cc2)C(=O)N[C@@H](Cc2ccc(O)cc2)C(=O)N[C@@H](CC(=O)O)C1=O [compound 1464] ({CH2CO}-[Phe(4-NH2)]YD[NHexGly]Y[Nle]GRL[Ahp(2)]PVDCG-OH; thioether N-14) = 7.50
• CCCCCCN1CC(=O)N[C@@H](Cc2ccc(O)cc2)C(=O)N[C@@H](CCCC)C(=O)N[C@@H](CC(N)=O)C(=O)N[C@@H](CCCNC(=N)N)C(=O)N[C@@H](CC(C)C)C(=O)N[C@@H](CCCCC)C(=O)N2CCC[C@H]2C(=O)N[C@@H](C(C)C)C(=O)N[C@@H](CC(=O)O)C(=O)N[C@H](C(=O)NCC(=O)O)CSCC(=O)N[C@@H](Cc2ccc(C(F)(F)F)cc2)C(=O)N[C@@H](Cc2ccc(O)cc2)C(=O)N[C@@H](CC(=O)O)C1=O [compound 1461] ({CH2CO}-[Phe(4-CF3)]YD[NHexGly]Y[Nle]NRL[Ahp(2)]PVDCG-OH; thioether N-14) = 8.30

--- query ---
The reported pIC50 of the compound C=CCOc1ccc(C[C@@H]2NC(=O)CSC[C@@H](C(=O)NCC(N)=O)NC(=O)[C@H](CC(=O)O)NC(=O)[C@H](C(C)C)NC(=O)[C@@H]3CCCN3C(=O)[C@H](CCCCC)NC(=O)[C@H](CC(C)C)NC(=O)[C@H](CCCNC(=N)N)NC(=O)CNC(=O)[C@H](C(C)C)NC(=O)[C@H](Cc3ccc(O)cc3)NC(=O)CN(CCCCCC)C(=O)[C@H](CC(=O)O)NC(=O)[C@H](Cc3ccc(O)cc3)NC2=O)cc1 [compound 1475] ({CH2CO}-Y(Allyl)YD[NHexGly]YVGRL[Ahp(2)]PVDCG-NH2; thioether N-14) was 7.97
